experiment: gradient 5% acetonitrile 3 min, to 50% in 2 min, to 85% in 15 min, held 3 min, 100 µL/min; conditions: column: Zorbax Extend-C18 2.1 x 50 mm; eluents: water / acetonitrile, 0.1% formic acid
What RP-LC retention time was measured for each of the following?
// note: answer is a bare numeric in s

Q: Return reported RP-LC retention time; argument: CCCCc1ccc(NC(=O)CSc2ccc(N3CCCC(C(=O)NC4CC4)C3)nn2)cc1 (stereo not given)
Ans: 800

Q: And then Cc1c(F)cccc1NC(=O)N1C[C@@H](F)C[C@H]1C(=O)N1CCc2ccccc2C1 , what is it?
Ans: 799

Q: Request: CCN(c1cccc(C)c1)S(=O)(=O)c1cc2n(c1)CCCN(C)C2=O
Ans: 783

Q: Now give it for CN(C)c1ccc(C(=O)N2CCC(COc3ccc(C(=O)NC4CC4)cc3)CC2)cc1 too.
Ans: 779

Q: Record: CNC(=O)c1sc2nc(-c3cccc(F)c3)c(NCCCOC)n2c1C
Ans: 777

* * *

assay: gradient 5% acetonitrile 3 min, to 50% in 2 min, to 85% in 15 min, held 3 min, 100 µL/min; conditions: column: Zorbax Extend-C18 2.1 x 50 mm; eluents: water / acetonitrile, 0.1% formic acid
parameter: RP-LC retention time
Kindly format the answer as number then unit.

Q: Which RP-LC retention time value is on record for O=C(CSc1ccc(-n2ccnc2)nn1)N1CCc2ccccc21 ?
Ans: 578 s

Q: What do we get for O=C(Nc1cccc(Cl)c1)c1nnc(COCC(=O)N2CCN(c3ccccn3)CC2)s1 ?
Ans: 657 s

Q: Item: O=C(c1cccs1)N1[C@H]2CC[C@@H]1c1cnc(-c3ccc(F)cc3)nc1C2
Ans: 979 s

Q: Follow-up entry: COc1ccc(CN2N=C(C(=O)N3CCOCC3)S(=O)(=O)c3ccccc32)cc1F
Ans: 807 s

Q: // query: COc1ccc(-c2cn3c(CC(=O)NC4CCCCCC4)csc3n2)cc1OC
Ans: 729 s

Q: // next record Cc1ccccc1CN1C(=O)CN(S(=O)(=O)c2ccccc2)CC1(C)C(=O)NC1CCCCC1 (centres undefined)
Ans: 1020 s

Q: Now the compound Cc1ccccc1CNC(=O)C1CCN(S(=O)(=O)c2cc(C(=O)N3CCCC3)n(C)c2)CC1
Ans: 738 s

Q: Also COc1cccc(S(=O)(=O)N2CCC3(CC2)N(c2ccccc2)C(=O)CS3=O)c1 (centres undefined) , if possible.
Ans: 737 s

Q: Similarly, CCn1cc(S(=O)(=O)N2CCCCC2CCn2cc(-c3ccccc3)nn2)cn1 (centres undefined) ?
Ans: 804 s

* * *

assay: gradient 5% acetonitrile 3 min, to 50% in 2 min, to 85% in 15 min, held 3 min, 100 µL/min; conditions: column: Zorbax Extend-C18 2.1 x 50 mm; eluents: water / acetonitrile, 0.1% formic acid
For each of the compounds below, state its RP-LC retention time.
Your answer should be a plain number; it is taken to be in s.

Q: I have this compound here, CNC(=O)c1ccc(-c2nc3cc(NS(=O)(=O)c4ccc5c(c4)CCCC5)ccc3n2C)cc1 , and I need its recorded RP-LC retention time.
Ans: 685

Q: Next entry: O=C(NCCCN1CCCC1)c1ccc(-c2noc(-c3ccccc3)n2)s1
Ans: 680

Q: One more compound: CCOc1ccc(NC(=O)N2CCN(c3cc(C)nc(N4CCCC4)n3)CC2)cc1
Ans: 681
